// reported growth per item
system: SW-620 colon; assay: NCI-60 one-dose screen, 48 h (100 = growth as untreated, 0 = no growth, -100 = all killed); details: 10 µM unless noted
This is part of a sample that, as a whole, favours compounds with a hit. Of some 83,000 tested, about 20% had one in any assay.
Form entry: value (%) — number only.

q: Reported growth for O=C(Cn1c2ccccc2c2ccncc21)N/N=C\c1ccc2ccccc2c1 : what is it?
a: 26.4

q: Need growth, item CNCCCOc1c(Br)cc(CCNC(=O)/C(Cc2ccc(OC)c(Br)c2)=N/O)cc1Br
a: 41

q: Reported growth, compound O=C(Nc1ccc(-n2ccc3c(NC(=O)c4ccccc4)nccc32)cc1)Nc1cccc(C(F)(F)F)c1 : ____
a: 63.4

q: Would you mind telling me what growth value was observed for COC1OCC(OS(=O)(=O)c2ccc(C)cc2)C(OC(=O)c2ccccc2)C1OC(=O)c1ccccc1 (stereo unspecified) ?
a: 19.5

q: I'd like to know its growth. The compound in question is CC(=O)N1N=C2N(Cc3ccccc3)C(=O)c3c(sc4c3CCCC4)N2C1c1cn(-c2ccccc2)nc1-c1ccc(Cl)cc1 (stereo unspecified)
a: 103

q: Any idea what growth was measured for CCC1S/C(=N\N=C(/C)c2ccco2)N(c2ccccc2)C1=O (stereo unspecified) ?
a: 119

---

# Lookup of reported growth keyed by entry
tested on: NCI-H460 lung; test: NCI-60 one-dose screen, 48 h (100 = growth as untreated, 0 = no growth, -100 = all killed); conditions: 10 µM unless noted
The panel holds about 83,000 compounds, 20% with a hit somewhere; the sample as a whole holds those more often.
# output: bare number, implied unit %

q: Item Cc1cccc[n+]1CCC[n+]1ccccc1C has what recorded growth?
a: 106

q: Report growth for O=C(NCCNc1nccc(-c2c(-c3cccc(O)c3)nc3sccn23)n1)Nc1cccc(C(F)(F)F)c1 please.
a: 80.1

q: Recorded growth of CC(C)[C@@H]1NC(=O)[C@]2(C)CSC(=N2)c2ccnc(c2)CNC(=O)C[C@@H](/C=C/CCS)OC1=O , please.
a: 9.2

More entries:
q: Query (compound): CN[C@@H](CCCNC(N)=NC/C=C(/C)CCC=C(C)C)C(=O)N(C)[C@@H](CCCNC(N)=NCC=C(C)C)C(=O)N[C@H](C)[C@H](OS(=O)(=O)O)c1ccc(OS(=O)(=O)O)c(COS(=O)(=O)O)c1 ; field requested: growth
a: 110

q: Dear colleague, I am looking for the recorded growth of the following compound: O=C(NNC(=O)c1ccc([N+](=O)[O-])cc1)c1ccc([N+](=O)[O-])cc1
a: 105

---

Test system: HOP-62 NSCLC
Assay: NCI-60 one-dose screen, 48 h
Details: 10 µM unless noted
Description: Growth inhibition of the HOP-62 human Non-Small Cell Lung tumor cell line is measured as a screen for anti-cancer activity. Cells are grown in 96 well plates and exposed to the test compound for 48 hours. Compounds are tested at a single concentration, which is 10^-5 M for most compounds. The reported endpoint is percent growth (GI% or GIPRCNT), where numbers from 0 - 100% represent growth inhibition, and numbers from -100% - 0 represent cell death. […]
Compounds without any hit were thinned out: in the full panel of roughly 83,000, 20% have a hit. Activity calls are given as the source filed them. How the source made its calls: active means growth percent below 10; inactive means the rest.
Result category, one only: label 1 = active, label 0 = inactive

Consider the following illustrative entries.
q: What outcome does the record of this test show for CO[C@H]1/C=C/C=C/C=C/C[C@H](OC(=O)[C@@H](C)NC(=O)C2CCCCC2)[C@H](C)[C@@H](O)/C(C)=C\CCC2=CC(=O)C=C(NC(=O)C1)C2=O ?
a: label 1

q: # outcome recorded in this test, key = C=CCOc1ccc(/C(Cl)=N/N=C(\Cl)c2cc(OC)c(OC)c(OC)c2)cc1
a: label 0

q: Given CCc1cccc(-c2ccccc2)c1 , state the outcome it received in this test.
a: label 0

q: Which outcome was entered for the compound Nn1c(CN2CCN(c3cc4c(cc3F)c(=O)c(C(=O)O)cn4C3CC3)CC2)n[nH]c1=S in this test?
a: label 0

q: Query: recorded result category for O=C(NCCNc1nccc(-c2c(-c3cccc(O)c3)nc3sccn23)n1)Nc1cccc(C(F)(F)F)c1 in this test
a: label 0

q: Please indicate how the test categorized COc1ccc(C2=NN(C(=O)COc3ccc(Cl)cc3)C(O)(c3cc(F)c(Cl)cc3Cl)C2)cc1 (stereo not given) .
a: label 0

q: Which outcome was assigned to O=C1COc2ccccc2C(=O)N1CCCCN1CCCCC1 in this test?
a: label 0

q: Please state the recorded outcome for this compound: CC(C)NCC(O)COc1ccc(CC(N)=O)cc1 (stereo not given)
a: label 0

Continuing:
q: Short answer needed: outcome of this test for O=C(Nc1ccc(-n2cc(-c3ccncc3)c(-c3ccc(O)c(Cl)c3)n2)cc1)c1ccc(Cl)c(Cl)c1 ?
a: label 0

q: Fill in: this test's call for COC(=O)c1oc2c(C(=O)/C=C/c3ccc(OC)cc3)c(OCCN3CCOCC3)ccc2c1C is ___
a: label 1

q: Look up the recorded call for CCCC(=O)Oc1ccc(/C(=C(\C)c2ccc(OC)cc2)c2ccc(OCCN3CCCCC3)cc2)cc1 in this test.
a: label 0

q: Answer briefly: the call reported for CN1C(=O)C2(NN=C(c3cccc4ccccc34)S2)c2ccccc21 (stereo not given) in this assay.
a: label 0

q: Short answer needed: outcome of this test for C[C@]12O[C@H]1[C@H](O)c1c(cc(O)c3c1C(=O)c1cccc(O)c1-3)C2=O ?
a: label 0
